Field: IC50. Provide a value for each of the substances that follow.
target: human PAC1 receptor (Homo sapiens, UniProt P41586); construct: SHSY-5Y (human neuroblastoma cell line) and RG-2 (rat glioma cell line) cells endogenously express human and rat PAC1 receptors, respectively; endogenous in cells; host or cells: SHSY-5Y human neuroblastoma cells; test: LANCE Ultra cAMP accumulation antagonist assay in SHSY-5Y cells; type: cell-based;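 also: inhibition of cAMP accumulation evoked by PAC1 agonist at its EC80 in SHSY-5Y cells endogenously expressing receptor, 30 min preincubation then 15 min agonist, TR-FRET readout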
Sequence (P41586 21-468): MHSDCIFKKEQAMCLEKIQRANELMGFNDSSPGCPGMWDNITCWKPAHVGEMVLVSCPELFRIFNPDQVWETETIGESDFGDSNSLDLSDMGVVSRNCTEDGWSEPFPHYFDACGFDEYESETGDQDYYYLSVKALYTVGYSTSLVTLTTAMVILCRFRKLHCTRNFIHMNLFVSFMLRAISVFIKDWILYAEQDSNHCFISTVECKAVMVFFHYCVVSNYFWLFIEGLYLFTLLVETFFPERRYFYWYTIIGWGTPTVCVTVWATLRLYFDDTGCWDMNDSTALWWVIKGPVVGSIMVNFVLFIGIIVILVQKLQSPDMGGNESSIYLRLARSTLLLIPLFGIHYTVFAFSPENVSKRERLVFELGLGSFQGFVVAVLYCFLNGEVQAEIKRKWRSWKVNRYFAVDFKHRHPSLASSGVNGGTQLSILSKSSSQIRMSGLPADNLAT
Bridges are numbered along the chain shown (N, C = ends). Where no end group is shown, it is not given here.

Look up IC50 for this substance: CDATCQFRKAIDDCDRQAHHSNVPGSVFKACMKQKKKEWKAGH (disulfide 1-5, 14-31) [compound 167]
0.01 to 1 nM

Same lookup for CDATCQFRKAIDECARQAHHSNVPGSVFKACMKQKKKEWKAGH (disulfide 1-5, 14-31) [compound 25] , please.
0.01 to 1 nM

Same lookup for CDATCQFRKAIDDCQKQAHHSNVPNSVFKECMKQKKKEFKAGK (disulfide 1-5, 14-31) [compound 365] , please.
1 to 100 nM

Same lookup for CDATCQFRKAIDDCLWYARHSNVPGSVFKACMKQKKKEFKAG-NH2 (disulfide 1-5, 14-31) [compound 120] , please.
0.01 to 1 nM

Same lookup for CDATCQFRKAIDDCARQAHHSNVPGSVFKACMKQKKKEFKAG-NH2 (disulfide 1-5, 14-31) [compound 17] , please.
0.01 to 1 nM

Same lookup for CDATCQFRKAIDDCDRQAHHSNVPGSVFKACMKQKKKEFKAG-NH2 (disulfide 1-5, 14-31) [compound 168] , please.
0.01 to 1 nM

Same lookup for CDATCQFRKAIDDCVKQAHHSNVPGSVFKACMKQKKKEFKAGY (disulfide 1-5, 14-31) [compound 48] , please.
0.01 to 1 nM

Same lookup for CDATCQFRKAIDDCYYRSRHSNVPGSVFKACMKQKKKEFKAG-NH2 (disulfide 1-5, 14-31) [compound 44] , please.
0.01 to 1 nM

Same lookup for CDATCQFRKAIDDCDRQAHHSNVPGSVFKACMKQKKKEWKAG-NH2 (disulfide 1-5, 14-31) [SEQ ID NO 163] , please.
0.01 to 1 nM

Same lookup for CDATCQFRKAIDDCQKQAHHSNVPGSVFKACMKQKKKEFKA-NH2 (disulfide 1-5, 14-31) [compound 214] , please.
1 to 100 nM

Same lookup for CDATCQFRKAIDDCVKQAHHSNVPGSVFKACMKQKKKEFKAG-NH2 (disulfide 1-5, 14-31) [SEQ ID NO 179] , please.
0.01 to 1 nM

Same lookup for CDATCQFRKAIDDCLWWSQHSNVPGSVFKACMKQKKKEFKAG-NH2 (disulfide 1-5, 14-31) [compound 117] , please.
0.01 to 1 nM

Same lookup for CDATCQFRKAIDDCMLFSWHSNVPGSVFKACMKQKKKEFKAG-NH2 (disulfide 1-5, 14-31) [compound 131] , please.
0.01 to 1 nM

Same lookup for CDATCQFRKAIDDCFTWAWHSNVPGSVFKACMKQKKKEFKAG-NH2 (disulfide 1-5, 14-31) [compound 74] , please.
0.01 to 1 nM

Same lookup for CDATCQFRKAIDDCVYSAWHANVPGSVFKACMKQKKKEFKAG-NH2 (disulfide 1-5, 14-31) [compound 137] , please.
0.01 to 1 nM

Same lookup for CDATCQFRKAIDDCQKQAHHSNVGNSVFKECMKQKKKEFKAGK (disulfide 1-5, 14-31) [compound 398] , please.
1 to 100 nM

Same lookup for CDATCQFRKAIDDCYYRSWHSNVPGSVFKACMKQKKKEFKAG-NH2 (disulfide 1-5, 14-31) [compound 149] , please.
0.01 to 1 nM

Same lookup for GCDATCQFRKAIDDCAKQAHHSNVPGSVFKACMKQKKKEFKAGY (disulfide 2-6, 15-32) [SEQ ID NO 58] , please.
0.01 to 1 nM

Same lookup for CDATCQFRKAIDDCARQAHHSNVPGSVWKACMKQKKKEWKAGH (disulfide 1-5, 14-31) [SEQ ID NO 105] , please.
0.01 to 1 nM

Same lookup for CDATCQFRKAIDDCYYRSWHSNVPGSVFKACMKQKKKEWKAG-NH2 (disulfide 1-5, 14-31) [SEQ ID NO 77] , please.
0.01 to 1 nM

Same lookup for CDATCQFRKAIDDCIFWAAHSNVPGSVFKACMKQKKKEFKAG-NH2 (disulfide 1-5, 14-31) [compound 123] , please.
0.01 to 1 nM

Same lookup for CDATCQFRKAIDDCAKASWHSNVPGSVFKSCMKQKKKEWKAGH-NH2 (disulfide 1-5, 14-31) [compound 1] , please.
0.01 to 1 nM

Same lookup for CDATCQFRKAIDDCQKQAHHSNVPGSVFKACLKQKKKEFKAG-NH2 (disulfide 1-5, 14-31) [compound 143] , please.
0.01 to 1 nM

Same lookup for CDATCQFRKAIDDCQKQAHHSNVPGNSVKECMKQKKKEFKAGK (disulfide 1-5, 14-31) [compound 362] , please.
> 100 nM

Same lookup for CDATCQFRKAIDDCYYRSWHANVPGSVFKACMKQKKKEWKAGN (disulfide 1-5, 14-31) [compound 62] , please.
1 to 100 nM

Same lookup for CDATCQFRKAIDDCQKQAHHSNVPGSVFKLCMKQKKKEFKAG-NH2 (disulfide 1-5, 14-31) [compound 226] , please.
0.01 to 1 nM

Same lookup for CDATCQFRKAIDDCQKQAHHSNVPGSVFKECMKQKKKEFKAGK (disulfide 1-5, 14-31) [compound 364] , please.
1 to 100 nM

Same lookup for CDATCQFRKAIDDCMWFAWHSNVPGSVFKACMKQKKKEFKAG-NH2 (disulfide 1-5, 14-31) [compound 122] , please.
0.01 to 1 nM
